Source listed as ChEMBL document CHEMBL3988442.

- measured.target: Tyrosyl-tRNA synthetase, putative (Trypanosoma cruzi (strain CL Brener)) (UniProt Q4DSP6)
- Sequence (Q4DSP6 as listed by the source): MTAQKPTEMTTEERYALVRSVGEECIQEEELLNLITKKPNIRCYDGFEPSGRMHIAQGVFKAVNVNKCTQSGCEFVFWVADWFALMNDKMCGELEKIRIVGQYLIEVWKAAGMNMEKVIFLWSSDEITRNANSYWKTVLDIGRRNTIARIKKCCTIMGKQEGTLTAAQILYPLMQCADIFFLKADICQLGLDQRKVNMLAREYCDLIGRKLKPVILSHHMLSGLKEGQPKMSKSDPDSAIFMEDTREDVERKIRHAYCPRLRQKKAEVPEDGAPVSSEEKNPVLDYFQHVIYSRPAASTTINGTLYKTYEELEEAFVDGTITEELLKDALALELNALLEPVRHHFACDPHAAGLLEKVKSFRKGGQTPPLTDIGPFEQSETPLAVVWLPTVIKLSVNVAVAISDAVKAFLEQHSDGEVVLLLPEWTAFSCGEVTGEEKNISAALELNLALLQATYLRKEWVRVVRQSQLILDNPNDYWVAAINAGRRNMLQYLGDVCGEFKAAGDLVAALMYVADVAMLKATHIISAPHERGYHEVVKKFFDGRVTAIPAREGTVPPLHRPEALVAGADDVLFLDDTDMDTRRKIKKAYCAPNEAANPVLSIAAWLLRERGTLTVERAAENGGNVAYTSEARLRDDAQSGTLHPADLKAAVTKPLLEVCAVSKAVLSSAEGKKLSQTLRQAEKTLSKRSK
- assay.method.text: Trypanosoma cruzi tyrosyl tRNA synthetase (TcYRS) SOP
- Assay type: functional
- Set-up: scale not given: direction of the effect not stated beside the values
- measurement.parameters: 30 µM

compound	measured.target	units.label	Percent Effect
COCCCN1CC2(CCCCN2C(=O)c2ccsc2)CC1=O (stereo unspecified)	Tyrosyl-tRNA synthetase, putative (Trypanosoma cruzi (strain CL Brener)) (UniProt Q4DSP6)	%	7.5
COc1cccc(CNc2cnn(C)c(=O)c2Cl)c1	Tyrosyl-tRNA synthetase, putative (Trypanosoma cruzi (strain CL Brener)) (UniProt Q4DSP6)	%	5.13
CCc1nc(CN(C)C2CCN(CCNS(=O)(=O)CC)C2)no1 (stereo unspecified)	Tyrosyl-tRNA synthetase, putative (Trypanosoma cruzi (strain CL Brener)) (UniProt Q4DSP6)	%	-2.56
Nc1nccc(-c2c[nH]nc2C2CCCCC2)n1	Tyrosyl-tRNA synthetase, putative (Trypanosoma cruzi (strain CL Brener)) (UniProt Q4DSP6)	%	0
CC(C)CN1CCC2(CCN(Cc3ccsc3)CC2)C1=O	Tyrosyl-tRNA synthetase, putative (Trypanosoma cruzi (strain CL Brener)) (UniProt Q4DSP6)	%	12.5
O=C(CN1CCCS1(=O)=O)NCCOc1ccc2c(c1)CCC2	Tyrosyl-tRNA synthetase, putative (Trypanosoma cruzi (strain CL Brener)) (UniProt Q4DSP6)	%	6.02

* * *

- Species: Homo sapiens
- assay.method.text: To identify inhibition of the IFN signalling (Jak-Stat) pathway via expression of an eGFP reporter gene under the control of an IFN-stimulated response element (ISRE) containing MxA promoter.
- Assay type: functional
- Design: scale not given: direction of the effect not stated beside the values
- measurement.parameters: 30 µM
Overview of recorded Percent Effect for various molecules

molecule	Percent Effect [%]
Cc1ccc(Cl)cc1N1CCC(CNC(=O)CC(F)(F)F)C1 (stereo unspecified)	38.9
Cc1ncc(S(C)(=O)=O)c(C2CCCNC2)n1 (stereo unspecified)	18.1
CN(C)CCCn1ccnc1C1CCCN(c2cc(N)ncn2)C1 (stereo unspecified)	-11
O=C(CCSc1ccc(F)cc1)NS(=O)(=O)c1ccc2c(c1)OCCO2	1.97
O=C1NCCN(CC2CC2)C12CCN(Cc1ccco1)CC2	10.4
CN1CCN(CC2CC2)C(=O)c2cnc(N3CCCC3)nc21	8.07
CCC(=O)N1CCCC1c1nccnc1Nc1nc(C)cc(C)n1 (stereo unspecified)	6.52
Cc1nn(C)c(N(C)C)c1CNCCCN(C)S(C)(=O)=O	4.19
CCCn1ncc2c(C(=O)Nc3n[nH]c(SC)n3)cc(C3CC3)nc21	13.4
CN(Cc1ccco1)[C@@H]1CN(Cc2ccc(F)cc2)C[C@@H]2CCCO[C@@H]21	-5.78
O=C(c1ccc2c(c1)OCO2)N1CCN(c2cnccn2)CC1	16

* * *

Overview of recorded Percent Effect for various compounds
- measured.target: AMP-activated protein kinase, AMPK (Homo sapiens) (UniProt P54646+O43741+P54619+Q9UGJ0+Q9Y478+Q13131+Q9UGI9)
- assay.method.text: AMP-dependent Kinase enzyme assay. An in vitro enzyme assay that detects ADP turnover that is directly proportional to AMPK activity. This uses naive AMPK that is activated during the assay with MK-8722
- Type: functional
- Set-up: scale not given: direction of the effect not stated beside the values
- measurement.parameters: 30 µM

cpd.smiles	Percent Effect / %
CCN1CCN(c2ccccc2NC(=O)NCc2ccon2)CC1	2.14
COc1ccc(OC)c(C(=O)Nc2cccnc2-n2cncn2)c1	2.13
Cc1cc(C)n(CCCN(C)c2cc(N(C)C)ncn2)n1	0.376
c1ccc2oc(N3CCC(c4nncn4C4CC4)CC3)nc2c1	8.44
COc1ncccc1-c1cc(C(N)=O)ccn1	1.56
CN1C[C@@H]2CC[C@H](C1)N(Cc1ccccc1OCCN1CCOCC1)C2	-106
